List of pIC50 values.
molecular target: Menin MLL 4-43 (Homo sapiens); construct: 6His; test: Inhibition of the menin-MLL interaction (Menin MLL 4-43 IC50); assay type: binding; details: Formula IV inhibitors of menin (Table 4i)
Sequence (O00255 whole entry): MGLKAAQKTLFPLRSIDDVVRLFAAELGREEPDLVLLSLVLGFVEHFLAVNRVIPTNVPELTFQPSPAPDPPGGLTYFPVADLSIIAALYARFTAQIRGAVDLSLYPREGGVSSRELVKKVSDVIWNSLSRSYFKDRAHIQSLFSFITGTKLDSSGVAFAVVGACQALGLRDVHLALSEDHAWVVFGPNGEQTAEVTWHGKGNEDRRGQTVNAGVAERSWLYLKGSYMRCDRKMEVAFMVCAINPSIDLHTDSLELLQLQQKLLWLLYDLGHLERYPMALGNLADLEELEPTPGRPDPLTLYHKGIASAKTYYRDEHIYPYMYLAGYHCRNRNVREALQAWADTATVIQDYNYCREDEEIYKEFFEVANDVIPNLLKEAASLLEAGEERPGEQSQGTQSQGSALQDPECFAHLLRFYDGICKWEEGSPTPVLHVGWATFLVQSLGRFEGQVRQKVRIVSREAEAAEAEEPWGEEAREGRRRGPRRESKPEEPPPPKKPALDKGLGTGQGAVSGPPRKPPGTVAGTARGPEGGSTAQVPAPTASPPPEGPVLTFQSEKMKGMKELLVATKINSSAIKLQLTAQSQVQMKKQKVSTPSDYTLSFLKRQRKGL
pIC50: −log10 of the molar value.

Worked cases, answers included:
>  <structure.notation>
Cc1c(CN2CCC(Nc3ncnc4sc(CC(F)(F)F)cc34)CC2)cnc2[nH]c(C#N)cc12

>  <result>
< 5.00

$$$$
>  <structure.notation>
Cc1c(CN2CCC(Nc3ncnc4sc(CC(F)(F)F)cc34)CC2)ccc2[nH]ncc12

>  <result>
5.00 to 6.00

$$$$

# evaluate next
Q: Please indicate pIC50 recorded for `FC(F)(F)Cc1cc2c(NC3CCN(Cc4ccc5[nH]ncc5c4)CC3)ncnc2s1`
Ans: 6.00 to 7.00
